Where do the numbers come from? From patent US20240010730A1.

Measured EC50 accompanies every entry in the list below.
# EXPERIMENTAL_TARGET: T1, human TIGIT on CHOK1-huTIGIT-2A3 cells (human, UniProt Q495A1 22-244)
# T1 construct: whole, on cells; also called cells expressing the human TIGIT
# T1 sequence (looked up): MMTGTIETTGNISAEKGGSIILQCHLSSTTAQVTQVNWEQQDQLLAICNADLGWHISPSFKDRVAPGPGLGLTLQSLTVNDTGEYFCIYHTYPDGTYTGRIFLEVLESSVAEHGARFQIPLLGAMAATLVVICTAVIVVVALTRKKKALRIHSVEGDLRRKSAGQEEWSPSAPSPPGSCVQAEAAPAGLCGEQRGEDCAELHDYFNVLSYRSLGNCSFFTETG
# MEASUREMENT_DESCRIPTION: flow cytometry on CHOK1-huTIGIT-2A3 cells
PARAMETER: EC50 (µg/mL)

BINDER	RESULT
900428 (antibody, human IgG1, kappa, L234A L235A, V domains shown, also called anti-TIGIT chimeric antibody 900428) VH: DVQLQESGPGLVKPSQSLSLTCTVTGYSITSDYAWNWIRQFPGNRLEWMGYISYSGAPRYNPSLKSRISITRDTSKNQFFLQLSFVTTEDTATYYCASLGTDYYAMDYWGQGTSVIVSS VL: DIVMTQSHKFMFTSVGDRVSITCKASQHVSNAVAWYQQKPGQSPKLLIHSASYRYTGVPDRFTGRGSGTDFTFTINSVQAEDLAVYYCQQYYSLPWTFGGGTKLEIKR	0.075
900423 (antibody, human IgG1, kappa, L234A L235A, V domains shown, also called anti-TIGIT chimeric antibody 900423) VH: DVQLQESGPGLVKPSQSLSLTCTVTGYSITSDYAWNWIRQFPGNRLEWMGYISYSGAPRYNPSLKSRISITRDTSKNQFFLQLSFVTTEDTATYYCASLGTDYYAMDYWGQGTSVIVSS VL: DIVMTQSHKFMFTSVGDRVSITCKASQHVSNAVAWYQQKPGQSPKLLIHSASYRYTGVPDRFIGRGSGTDFTFTISSVQAEDLAVYYCQQYYSLPWTFGGGTKLEIKR	0.06
HB0032 (antibody, human IgG1, kappa, V domains shown, Humanized anti-TIGIT IgG1; also called 900466) VH: QVQLQESGPGLVKPSETLSLTCTVSGYSITSDYAWIWIRQPPGKKLEWIGYITSSGSTYYNPSLKSRVTFSVDTSKNQFSLKLSSVTAADTATYYCARLDFGNYGGAMDYWGQGTLVTVSS VL: DIQMTQSPSSLSASVGDRVTITCKASQHVSTAVNWYQQKPGKAPKLLIYSASYRQSGVPSRFSGSGSGTDFTLTISSLQPEDFATYYCQQHYITPYTFGQGTKLEIKR	0.0785
900424 (antibody, human IgG1, kappa, L234A L235A, V domains shown, Chimeric form of B3/29F6; also called ADCC KO type human-mouse chimeric antibody (number 900424)) VH: DVQLQESGPGLVKPSQSLSLTCTVTGYSITSDYAWIWIRQFPGNKVEWMGYITSSGSTSYNPSLKSRISFTRDTSKNQFFLQLTSVTTEDTATYYCARLDFGNYGGAMDYWGQGTSVTVSS VL: DIVMTQSHKFMSTSIGDRVSITCKASQHVSTAVAWYQQKPGQSPKLLIYSASYRYTGVPDRFTGSRSGTDFTFTISSVQAEDLAVYYCQQHYITPYTFGGGTKLEIKR	0.053
